Below are pKd values measured for UniProt:Q04609.
Sequence (Q04609 whole entry): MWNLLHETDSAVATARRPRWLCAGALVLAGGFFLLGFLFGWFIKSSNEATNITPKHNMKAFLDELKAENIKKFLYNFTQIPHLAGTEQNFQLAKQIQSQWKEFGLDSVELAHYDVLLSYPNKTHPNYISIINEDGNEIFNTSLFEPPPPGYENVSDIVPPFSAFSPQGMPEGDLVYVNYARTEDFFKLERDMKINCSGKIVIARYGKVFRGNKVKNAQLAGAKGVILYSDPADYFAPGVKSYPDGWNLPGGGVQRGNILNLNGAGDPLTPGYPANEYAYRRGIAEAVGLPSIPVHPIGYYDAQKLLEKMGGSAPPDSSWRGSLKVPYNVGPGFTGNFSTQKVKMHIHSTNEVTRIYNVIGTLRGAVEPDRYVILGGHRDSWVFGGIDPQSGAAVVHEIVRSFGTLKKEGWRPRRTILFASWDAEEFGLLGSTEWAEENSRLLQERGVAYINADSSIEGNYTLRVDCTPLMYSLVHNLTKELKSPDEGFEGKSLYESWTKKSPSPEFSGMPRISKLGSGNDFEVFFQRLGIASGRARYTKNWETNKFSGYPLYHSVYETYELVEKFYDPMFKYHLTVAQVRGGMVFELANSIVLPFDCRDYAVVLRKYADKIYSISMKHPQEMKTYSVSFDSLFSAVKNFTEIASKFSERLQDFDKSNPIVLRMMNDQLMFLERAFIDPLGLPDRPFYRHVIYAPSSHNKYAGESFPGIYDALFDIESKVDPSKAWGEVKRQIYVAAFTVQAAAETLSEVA
pKd: −log10 of the molar value.
endpoint.name: pKd

• CC(=O)NCCOCCOCCOCCC(=O)NC[C@H]1CC[C@H](C(=O)N[C@@H](Cc2cccc(C(=O)O)c2)C(=O)NCCCC[C@H](NC(=O)N[C@@H](CCC(=O)O)C(=O)O)C(=O)O)CC1 [Compound 10] = 8.69
• CC(=O)NCCOCCOCCOCCC(=O)N(CCCCOc1cc(C(F)(F)F)cc(C(F)(F)F)c1)CC(=O)N[C@@H](Cc1ccc2ccccc2c1)C(=O)NCCCC[C@H](NC(=O)N[C@@H](CCC(=O)O)C(=O)O)C(=O)O [Compound 88] = 8.82
• CC(=O)NCCOCCOCCOCCC(=O)NC[C@H]1CC[C@H](C(=O)N[C@@H](Cc2ccc(N)cc2)C(=O)NCCCC[C@H](NC(=O)N[C@@H](CCC(=O)O)C(=O)O)C(=O)O)CC1 [Compound 14] = 8.33
• CC(=O)NCCOCCOCCOCCC(=O)N[C@@H](Cc1ccc(C(=O)O)cc1)C(=O)NCCCC(=O)N[C@@H](Cc1ccc2ccccc2c1)C(=O)NCCCC[C@H](NC(=O)N[C@@H](CCC(=O)O)C(=O)O)C(=O)O [Compound 97] = 8.44
• CC(=O)NCCOCCOCCOCCC(=O)N[C@@H](Cc1ccc(C(=O)O)cc1)C(=O)NCCC(=O)N[C@@H](Cc1ccc2ccccc2c1)C(=O)NCCCC[C@H](NC(=O)N[C@@H](CCC(=O)O)C(=O)O)C(=O)O [Compound 95] = 8.71
